# test-protocol: 16-day body weight and gain:feed (Example 2)
# Assay type: in vivo, chicken (Peterson X Arbor Acre cockerels)
# details: Study 3; D3 […], derivatives 10 μg/kg feed
property-label: 16 Day Wt.
Answer with a number only.

# example entries with known answers
C=C1/C(=C\C=C2/CCC[C@]3(C)[C@@H]([C@H](C)CCCC(C)(C)O)CC[C@@H]23)C[C@@H](O)C[C@@H]1O [1,25-(OH)2 D3, 1,25-dihydroxycholecalciferol] | 421
C=C1CC[C@H](O)C/C1=C/C=C1\CCC[C@]2(C)[C@@H]([C@H](C)CCC(O)C(C)(C)O)CC[C@@H]12 (stereo partly shown) [24,25-(OH)2 D3, 24,25-dihydroxycholecalciferol, reference compound] | 424
[2H]C([2H])([2H])C(O)(CCC[C@@H](C)[C@H]1CC[C@H]2/C(=C/C=C3/C[C@@H](O)C[C@H](O)C3=C)CCC[C@]12C)C([2H])([2H])[2H] [1,25-(OH)2-26,27[^1 H]6 D3] | 422
C=C1/C(=C\C=C2/CCC[C@]3(C)[C@@H]([C@H](C)CCCC(C)C)CC[C@@H]23)C[C@@H](O)C[C@@H]1O [1-OHD3, 1-hydroxycholecalciferol] | 423
C=C1CC[C@H](O)C/C1=C/C=C1\CCC[C@]2(C)[C@@H]([C@H](C)CCCC(C)C)CC[C@@H]12 [D3, cholecalciferol, reference compound] | 434
C=C1/C(=C\C=C2/CCC[C@]3(C)[C@@H]([C@H](C)CCC(O)C(C)(C)O)CC[C@@H]23)C[C@@H](O)C[C@@H]1O (stereo partly shown) [1,24,25-(OH)2 D3, 1,24,25-trihydroxycholecalciferol] | 428

Please find the next compound below.
// query I am curious: what 16 Day Wt. value has been reported for C=C1/C(=C\C=C2/CCC[C@]3(C)[C@@H]([C@H](C)CC[C@@H](F)C(C)(C)O)CC[C@@H]23)C[C@@H](O)C[C@@H]1O [1,25-(OH)2-24R-FD3, 1,25-dihydroxy-24-fluorocholecalciferol] ?
// result 413
